target: bovine testes calmodulin (bovine, UniProt P62157 1-149); experiment: SPR
measurement label: kon (M⁻¹ s⁻¹)
Give bare numbers, in M⁻¹ s⁻¹.

Worked set:
INSERT INTO results (binder, measurement_label, measurement_units, number) VALUES
  ('His-tagged ACA8 N-terminus S29D (6His-1M-I116) (domain or fragment) MTSLLKSSPGRRRGGDVESGKSEHADSDDDTFYIPSKNASIERLQQWRKAALVLNASRRFRYTLDLKKEQETREMRQKIRSHAHALLAANRFMDMGRESGVEKTTGPATPAGDFGI', 'kon', 'M⁻¹ s⁻¹', 171000),
  ('His-tagged ACA8 N-terminus S99D (6His-1M-I116) (domain or fragment) MTSLLKSSPGRRRGGDVESGKSEHADSDSDTFYIPSKNASIERLQQWRKAALVLNASRRFRYTLDLKKEQETREMRQKIRSHAHALLAANRFMDMGREDGVEKTTGPATPAGDFGI', 'kon', 'M⁻¹ s⁻¹', 121000);

Record kon per entry; entries follow.
1. His-tagged ACA8 N-terminus S19D (6His-1M-I116) (domain or fragment) MTSLLKSSPGRRRGGDVEDGKSEHADSDSDTFYIPSKNASIERLQQWRKAALVLNASRRFRYTLDLKKEQETREMRQKIRSHAHALLAANRFMDMGRESGVEKTTGPATPAGDFGI
2. His-tagged ACA8 N-terminus S57D (6His-1M-I116) (domain or fragment) MTSLLKSSPGRRRGGDVESGKSEHADSDSDTFYIPSKNASIERLQQWRKAALVLNADRRFRYTLDLKKEQETREMRQKIRSHAHALLAANRFMDMGRESGVEKTTGPATPAGDFGI
3. His-tagged ACA8 N-terminus S22D (6His-1M-I116) (domain or fragment) MTSLLKSSPGRRRGGDVESGKDEHADSDSDTFYIPSKNASIERLQQWRKAALVLNASRRFRYTLDLKKEQETREMRQKIRSHAHALLAANRFMDMGRESGVEKTTGPATPAGDFGI

[224000, 154000, 58000]

Reference for the values: paper PMC3276087
